Below, each entry is listed alongside its reported IC50.
Target: WT EML4-ALK (NIH-3T3 EML4-ALK wt v1 cells) (Homo sapiens, UniProt Q9UM73)
Construct: expressed in transfected cells; the other entry of the earlier key: EML4 (Q9HC35, Echinoderm microtubule-associated protein-like 4)
Sequence (Q9UM73 with tags, fused parts or gaps): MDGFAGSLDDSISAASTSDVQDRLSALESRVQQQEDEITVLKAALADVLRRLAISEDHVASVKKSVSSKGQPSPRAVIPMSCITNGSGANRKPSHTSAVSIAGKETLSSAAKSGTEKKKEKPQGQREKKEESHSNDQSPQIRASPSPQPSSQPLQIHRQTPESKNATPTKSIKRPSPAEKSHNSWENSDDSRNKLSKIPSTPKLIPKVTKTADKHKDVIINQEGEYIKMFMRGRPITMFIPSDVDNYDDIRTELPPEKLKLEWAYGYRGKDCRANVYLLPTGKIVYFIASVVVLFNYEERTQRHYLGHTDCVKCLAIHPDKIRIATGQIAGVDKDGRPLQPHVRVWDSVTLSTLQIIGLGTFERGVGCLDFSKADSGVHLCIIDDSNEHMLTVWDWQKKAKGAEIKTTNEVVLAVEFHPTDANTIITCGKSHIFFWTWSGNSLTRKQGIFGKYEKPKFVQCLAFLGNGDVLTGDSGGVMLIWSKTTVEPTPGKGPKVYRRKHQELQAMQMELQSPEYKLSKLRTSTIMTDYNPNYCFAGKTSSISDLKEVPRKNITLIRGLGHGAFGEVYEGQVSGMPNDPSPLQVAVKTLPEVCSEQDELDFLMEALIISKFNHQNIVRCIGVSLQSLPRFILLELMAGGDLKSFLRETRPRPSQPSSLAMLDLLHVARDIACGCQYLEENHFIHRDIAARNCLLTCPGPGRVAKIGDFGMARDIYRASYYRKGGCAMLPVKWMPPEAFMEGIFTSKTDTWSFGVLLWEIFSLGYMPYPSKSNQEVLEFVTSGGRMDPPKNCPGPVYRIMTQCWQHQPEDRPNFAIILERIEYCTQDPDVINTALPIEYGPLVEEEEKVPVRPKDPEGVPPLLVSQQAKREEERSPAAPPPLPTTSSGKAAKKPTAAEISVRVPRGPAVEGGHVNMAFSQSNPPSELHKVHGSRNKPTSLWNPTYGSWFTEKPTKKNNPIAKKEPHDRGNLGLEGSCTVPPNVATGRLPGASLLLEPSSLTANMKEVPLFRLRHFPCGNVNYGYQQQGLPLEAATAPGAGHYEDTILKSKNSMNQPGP
Assay: Cellular phospho-ALK (Tyr1604) ELISA assay for WT EML4-ALK
Assay type: cell-based
Details: 1 hour, read-out: ELISA assay for WT EML4-ALK (IC50)

{"columns": ["COMPOUND", "IC50 (nM)"],
 "data": [
  ["CCc1noc2c1-c1cnc(N)c(c1)O[C@H](C)c1cc(F)ccc1C(=O)N(C)C2", 2.25],
  ["CCN1Cc2c(c(C)nn2C)-c2cnc(N)c(c2)OC(C)c2cc(F)ccc2C1=O (single isomer, unassigned)", 0.35],
  ["COc1nccc2c1-c1cnc(N)c(c1)O[C@H](C)c1cc(F)ccc1C(=O)N(C)C2", 36.1],
  ["COc1c2c(nn1C)CN(C)C(=O)c1ccc(F)cc1C(C)Oc1cc-2cnc1N (single isomer, unassigned)", 4.89],
  ["CCc1onc2c1-c1cnc(N)c(n1)O[C@H](C)c1cc(F)ccc1C(=O)N(C)C2", 6.75]
]}

###

Below, each entry is listed alongside its reported pIC50.
Molecular target: WT EML4-ALK (NIH-3T3 EML4-ALK wt v1 cells) (Homo sapiens, UniProt Q9UM73)
Construct: expressed in transfected cells; the other entry of the earlier key: EML4 (Q9HC35, Echinoderm microtubule-associated protein-like 4)
Experiment: Cellular phospho-ALK (Tyr1604) ELISA assay for WT EML4-ALK
Type: cell-based
Conditions: 1 hour, read-out: ELISA assay for WT EML4-ALK (IC50)
pIC50: −log10 of the molar value.
REPORTED PROPERTY: pIC50

{"columns": ["MOLECULE", "REPORTED PROPERTY", "LIMIT QUALIFIER", "NUMERIC VALUE"],
 "data": [
  ["C[C@H]1Oc2nc(cnc2N)-c2c(C#N)nn(C)c2CN(C)C(=O)c2ccc(F)cc21 [Example 115]", "pIC50", "=", 9.02],
  ["CCn1ncc2c1-c1cnc(N)c(n1)O[C@H](C)c1cc(F)ccc1C(=O)N(C)C2 [Example 49]", "pIC50", "=", 8.39],
  ["CC1Cc2cc(cnc2N)-c2c(nn(C)c2C#N)CN(C)C(=O)c2ccc(F)cc21 (single isomer, unassigned) [Example 64]", "pIC50", "=", 6.39],
  ["C[C@H]1Oc2cc(cnc2N)-c2c(C#N)nn(C)c2CN(C)C(=O)c2ccc(F)cc21 [Example 114]", "pIC50", "=", 8.48],
  ["CN1Cc2nn(C)c(C#N)c2-c2cnc(N)c(c2)OCc2cc(F)ccc2C1=O [Example 4]", "pIC50", "=", 7.55],
  ["CCc1snc2c1-c1cnc(N)c(c1)O[C@H](C)c1cc(F)ccc1C(=O)N(C)C2 [Example 110]", "pIC50", "=", 8.00],
  ["CC1Cc2cc(cnc2N)-c2c(nn(C)c2C#N)CN(C)C(=O)c2ccc(F)cc21 (stereo not shown) [Example 61]", "pIC50", "=", 8.32],
  ["COc1cnc2cc1-c1cnc(N)c(c1)O[C@H](C)c1cc(F)ccc1C(=O)N(C)CC2 [Example 116]", "pIC50", "<", 5.00],
  ["CCc1nsc2c1-c1cnc(N)c(c1)O[C@H](C)c1cc(F)ccc1C(=O)N(C)C2 [Example 112]", "pIC50", "=", 8.01],
  ["CC1Oc2cc(cnc2N)-c2ccccc2CN(C)C(=O)c2ccc(F)cc21 (stereo not shown) [Example 8]", "pIC50", "=", 7.92],
  ["CC1Oc2cc(cnc2N)-c2c(nn(C)c2C#N)CN(C)C(=O)c2c(F)cccc21 (single isomer, unassigned) [Example 52]", "pIC50", "=", 8.32],
  ["C[C@H]1Oc2cc(cnc2N)-c2c(nn(C)c2C#N)CN(C)Cc2ccc(F)cc21 [Example 36]", "pIC50", "=", 9.74],
  ["COc1nn(C)c2c1-c1cnc(N)c(c1)OC(C)c1cccnc1C(=O)N(C)C2 (single isomer, unassigned) [Example 65]", "pIC50", "=", 8.03],
  ["C[C@H]1Oc2nc(cnc2N)-c2c(C(N)=O)noc2CN(C)C(=O)c2ccc(F)cc21 [Example 72]", "pIC50", "=", 6.46],
  ["C[C@H]1Oc2nc(cnc2N)-c2c(nn(C)c2C#N)CNC(=O)c2ccc(F)cc21 [Example 102]", "pIC50", "=", 7.93],
  ["CC1Oc2cc(F)ccc2C(=O)N(C)Cc2nn(C)c(C#N)c2-c2cnc(N)c1c2 (single isomer, unassigned) [Example 77]", "pIC50", "=", 5.47],
  ["CN1Cc2nn(C)c(C#N)c2-c2cnc(N)c(n2)OCc2cc(F)ccc2C1=O [Example 46]", "pIC50", "=", 7.98],
  ["C[C@H]1Oc2cc(cnc2N)-c2c(nnn2CC2CCC2)CN(C)C(=O)c2ccc(F)cc21 [Example 135]", "pIC50", "=", 7.34],
  ["COc1snc2c1-c1cnc(N)c(n1)O[C@H](C)c1cc(F)ccc1C(=O)N(C)C2 [Example 51]", "pIC50", "=", 9.02],
  ["Cc1n[nH]c2c1-c1cnc(N)c(c1)OCc1cc(F)ccc1OCCC2 [Example 38]", "pIC50", "=", 7.92],
  ["C[C@H]1Oc2cc(cnc2N)-c2cc(S(C)(=O)=O)ccc2CN(C)Cc2ccc(F)cc21 [Example 35]", "pIC50", "=", 9.01],
  ["C[C@H]1Oc2nc(cnc2N)-c2c(nn(C)c2C#N)CN(C)C(=O)c2ccccc21 [Example 70]", "pIC50", "=", 8.19],
  ["COc1nn(C)c2c1-c1cnc(N)c(c1)OC(C1CC1)c1cc(F)ccc1C(=O)N(C)C2 (single isomer, unassigned) [Example 26]", "pIC50", "=", 7.30],
  ["Cc1nn(C)c2c1-c1cnc(N)c(c1)OC(C)c1cc(F)ccc1C(=O)N(C1CC1)C2 (single isomer, unassigned) [Example 11]", "pIC50", "=", 8.92],
  ["C[C@H]1Oc2cc(cnc2N)-c2c(nn(C)c2C#N)CNC(=O)c2ccc(F)cc21 [Example 132]", "pIC50", "=", 7.45],
  ["C[C@H]1Oc2cc(cnc2N)-c2c(nnn2C2CCC2)CN(C)C(=O)c2ccc(F)cc21 [Example 136]", "pIC50", "=", 7.55],
  ["CN1Cc2ccccc2-c2cnc(N)c(c2)OCc2cc(F)ccc2C1=O [Example 7]", "pIC50", "=", 6.81],
  ["CC1Oc2nc(cnc2N)-c2c(nn(C)c2C#N)Cn2ccnc2-c2ccc(F)cc21 (single isomer, unassigned) [Example 108]", "pIC50", "=", 10.17],
  ["C[C@H]1Oc2nc(cnc2N)-c2c(nn(C)c2C#N)CN(C)C(=O)c2c(F)cc(F)cc21 [Example 101]", "pIC50", "=", 9.04],
  ["CCC1Oc2cc(cnc2N)-c2c(OC)nn(C)c2CN(C)C(=O)c2ccc(F)cc21 (single isomer, unassigned) [Example 23]", "pIC50", "=", 9.11],
  ["COc1snc2c1-c1cnc(N)c(c1)O[C@H](C)c1cc(F)ccc1C(=O)N(C)C2 [Example 3]", "pIC50", "=", 9.00]
]}

###

Target: L1196M EML4-ALK (NIH-3T3 EML4-ALK v1 L1196M cells) (Homo sapiens, UniProt Q9UM73, L1196M)
Construct: expressed in transfected cells; the other entry of the earlier key: EML4 (Q9HC35, Echinoderm microtubule-associated protein-like 4)
Test: Cellular phospho-ALK (Tyr1604) ELISA assay for L1196M EML4-ALK
Type: cell-based
Settings: NIH-3T3 EML4-ALK v1 L1196M cells, 1 hour, phospho-ALK (Tyr1604); read-out: ELISA assay for L1196M EML4-ALK (IC50)
pIC50: −log10 of the molar value.
Below, each entry is listed alongside its reported pIC50.

{"columns": ["COMPOUND", "ASSAY TARGET", "pIC50"],
 "data": [
  ["C[C@H]1Oc2nc(cnc2N)-c2c(C#N)n[nH]c2CN(C)C(=O)c2ccc(F)cc21", "L1196M EML4-ALK (NIH-3T3 EML4-ALK v1 L1196M cells) (Homo sapiens, UniProt Q9UM73, L1196M)", 7.25],
  ["CN1Cc2nn(C)c(C#N)c2-c2cnc(N)c(c2)OCc2cc(F)ccc2C1=O", "L1196M EML4-ALK (NIH-3T3 EML4-ALK v1 L1196M cells) (Homo sapiens, UniProt Q9UM73, L1196M)", 6.74],
  ["Cn1nc2c(c1C#N)-c1cnc(N)c(c1)OCc1cc(F)ccc1COC2", "L1196M EML4-ALK (NIH-3T3 EML4-ALK v1 L1196M cells) (Homo sapiens, UniProt Q9UM73, L1196M)", 5.85],
  ["C[C@H]1Oc2cc(cnc2N)-c2c(C#N)nn(C)c2CN(C)C(=O)c2ccc(F)cc21", "L1196M EML4-ALK (NIH-3T3 EML4-ALK v1 L1196M cells) (Homo sapiens, UniProt Q9UM73, L1196M)", 7.11],
  ["COc1nn(C)c2c1-c1cnc(N)c(c1)OC(C)c1cccnc1C(=O)N(C)C2 (single isomer, unassigned)", "L1196M EML4-ALK (NIH-3T3 EML4-ALK v1 L1196M cells) (Homo sapiens, UniProt Q9UM73, L1196M)", 6.50],
  ["C[C@H]1Oc2cc(cnc2N)-c2c(C#N)noc2CN(C)C(=O)c2ccc(F)cc21", "L1196M EML4-ALK (NIH-3T3 EML4-ALK v1 L1196M cells) (Homo sapiens, UniProt Q9UM73, L1196M)", 6.41],
  ["CN1Cc2ccc(S(C)(=O)=O)cc2-c2cnc(N)c(c2)OCc2cc(F)ccc2C1=O", "L1196M EML4-ALK (NIH-3T3 EML4-ALK v1 L1196M cells) (Homo sapiens, UniProt Q9UM73, L1196M)", 6.81],
  ["C[C@H]1Oc2cc(cnc2N)-c2c(noc2C#N)CN(C)C(=O)c2ccc(F)cc21", "L1196M EML4-ALK (NIH-3T3 EML4-ALK v1 L1196M cells) (Homo sapiens, UniProt Q9UM73, L1196M)", 5.83]
]}
